Data origin, for the record: the supplement of paper PMC13380429

So I've got a bunch of compounds here, and I need their cell viability values.
Test system: U2OS
assay_comment: cell viability relative to DMSO; higher = less toxic
measurement_setup: 72 h; 10000 nM
State the answer as a number, implicitly in %.

Exam item: Quick one: cell viability for C[C@H](CCC(=O)O)[C@H]1CC[C@H]2[C@@H]3CC[C@@H]4C[C@H](O)CC[C@]4(C)[C@H]3C[C@H](O)[C@]12C ?
Marked response: 98.2

Exam item: Form field: reported cell viability of CCCCOC(=O)c1ccc(N)cc1
Marked response: 103

Exam item: Which measured cell viability value corresponds to CC1=C(C(=O)O)N2C(=O)[C@@H](NC(=O)[C@H](N)c3ccc(O)cc3)[C@H]2SC1 ?
Marked response: 103

Exam item: Name the recorded cell viability for Oc1cccc2cccnc12 .
Marked response: 100

Exam item: Requested read-out: cell viability. Entry: NC(Cc1ccc(I)cc1)C(=O)O (stereo in doubt)
Marked response: 97.6

Exam item: cell viability lookup needed for CC(C)(Oc1ccc(Cl)cc1)C(=O)N1CSCC1C(=O)O (configuration not stated) [timofibrate] , thanks.
Marked response: 104

Exam item: Form field: reported cell viability of FC(F)(F)c1cccc(C2=CCN(CCc3ccc4ccccc4c3)CC2)c1
Marked response: 111

Exam item: Requested read-out: cell viability. Entry: COc1cc2nc(N3CCCN(C)CC3)nc(NC3CCN(Cc4ccccc4)CC3)c2cc1OC
Marked response: 43.8

Exam item: Which cell viability value belongs to C[C@H]1[C@@H](O)O[C@@H]2O[C@@]3(C)CC[C@H]4[C@H](C)CC[C@@H]1[C@@]24OO3 ?
Marked response: 31.8

Exam item: Returns the measured cell viability for the input compound. Input: C/C(O)=C(\C#N)C(=O)Nc1cc(Br)ccc1Br
Marked response: 96.4

Exam item: // cell viability lookup, key: CNC(=O)c1cnn(-c2nc(N)c3ncn([C@@H]4O[C@H](CO)[C@@H](O)[C@H]4O)c3n2)c1
Marked response: 104

Exam item: If you can, please state the reported cell viability value of C[C@@H]1CN(Cc2ccc(F)cc2)[C@@H](C)CN1C(=O)c1cc2c(C(=O)C(=O)N(C)C)cn(C)c2cc1Cl .
Marked response: 90.6

Exam item: // query cell viability value for entry CCCCCCCCCCC(=O)O[C@H]1CC[C@H]2[C@@H]3CCC4=CC(=O)CC[C@]4(C)[C@H]3CC[C@]12C [Testosterone (undecanoate)]
Marked response: 97.7

Exam item: Which value of cell viability has been reported for C=CC[C@]1(O)CC[C@H]2[C@@H]3CCC4=CC(=O)CCC4=C3C=C[C@@]21C in the records?
Marked response: 104

Exam item: Bench note: what cell viability did OCc1cc(C(O)CNCCCCCCOCCCCc2ccccc2)ccc1O (configuration not stated) show?
Marked response: 95.2

Exam item: Given C[C@]12CC[C@H]3[C@@H](CC[C@@]45O[C@@H]4C(O)=C(C#N)C[C@]35C)[C@@H]1CC[C@@H]2O , state its recorded cell viability.
Marked response: 97.9

Exam item: Find the recorded cell viability belonging to CCCNC(=O)N1N=C(c2ccc(N)cc2)c2cc3c(cc2C1C)OCO3 (configuration not stated) and report it.
Marked response: 101
